- Tested on: U2OS
- protocolText: Incucyte cell viability with U2OS; also: unitless GR value; below 1 slowed growth and below 0 cell loss
- Format: toxicity, cell-based
- testContext: human, 18 h, 10 µM, compound concentration 10 uM, replicate number 1
measuredProperty: Growth Rate

Some compounds with known Growth Rate results, for comparison:
* Cc1nccn1CC1CCc2c(c3ccccc3n2C)C1=O.Cl (stereo not given) | 0.91
* Cn1c(=O)n(CCCO)c(=O)c2c1nc(Oc1cccc(OC(F)(F)F)c1)n2Cc1ccc(Cl)cc1 [ZERENCOTREP] | 0.88
* O=C(O)CNC(=O)c1c(O)c2ccccc2n(Cc2ccccc2)c1=O | 0.86
* COc1ccccc1-n1nc(C2CC(C)(C)OC(C)(C)C2)cc1-c1ccc(Cl)cc1 | 0.94

Record summary for CCCCCNC(=O)N1CCC(CN(Cc2ccc(Cl)cc2)Cc2ccc([N+](=O)[O-])s2)C1 (stereo not given) [SR9011] : reported Growth Rate = 0.9
